# experimental-target: BCL-2 (Homo sapiens, UniProt P10415)
# Sequence (P10415 whole entry): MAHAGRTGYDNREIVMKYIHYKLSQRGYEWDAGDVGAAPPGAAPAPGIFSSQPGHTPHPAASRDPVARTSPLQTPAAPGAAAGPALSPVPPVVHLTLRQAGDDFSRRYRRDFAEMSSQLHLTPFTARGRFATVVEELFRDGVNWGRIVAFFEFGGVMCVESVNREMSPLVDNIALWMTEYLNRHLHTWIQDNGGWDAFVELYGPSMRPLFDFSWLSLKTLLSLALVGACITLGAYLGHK
# test: HTRF BCL-2/BAK assay (Cisbio)
# setup-conditions: recombinant human Tag1-BCL-2 2 nM, Tag2-BAK 10 nM
pIC50: −log10 of the molar value.
Quick reference: pIC50 of the listed items.

In the examples that follow, each entry is paired with its recorded pIC50.
[[record]]
molecule = "O=C(NS(=O)(=O)c1ccc(NC[C@@H]2CO[C@@H]3OCC[C@H]23)c([N+](=O)[O-])c1)c1ccc(N2CCN([C@@H]3CCCCc4c(Br)cc(F)cc43)CC2)cc1Oc1cnc2[nH]ccc2c1 (relative stereo) [Compound 81]"
outcome_measure = "pIC50"
observed_value = "6.70 to 7.70"

[[record]]
molecule = "O=C(NS(=O)(=O)c1ccc(NCC2CCOCC2)c([N+](=O)[O-])c1)c1ccc(N2CCC3(CC2)CN(C2CCCCc4ccccc42)C3)cc1Oc1cnc2[nH]ccc2c1 (centres unmarked) [Compound 93]"
outcome_measure = "pIC50"
observed_value = "6.70 to 7.70"

[[record]]
molecule = "O=C(NS(=O)(=O)c1cccc([N+](=O)[O-])c1)c1ccc(N2CCN(C3CCCc4cccc(-c5ccccc5)c43)CC2)cc1Oc1cnc2[nH]ccc2c1 (centres unmarked) [Compound 8]"
outcome_measure = "pIC50"
observed_value = "5.70 to 6.70"


Data request: Look up pIC50 of CC(=O)N1CCN(CCNc2ccc(S(=O)(=O)NC(=O)c3ccc(N4CCN([C@@H]5CCCCc6c(Br)cccc65)CC4)cc3Oc3cnc4[nH]ccc4c3)cc2[N+](=O)[O-])CC1 [Compound 65] and report it.
Data returned: > 7.70

Data request: Report measured pIC50; entry is O=C(NS(=O)(=O)c1ccc(NCCN2CCC3(CC2)COC3)c([N+](=O)[O-])c1)c1ccc(N2CCN([C@@H]3CCCCc4c(Br)cccc43)CC2)cc1Oc1cnc2[nH]ccc2c1 [Compound 68]
Data returned: > 7.70
